# targetOrTestSystem: Cathepsin S (Homo sapiens)
# Sequence (P25774 whole entry): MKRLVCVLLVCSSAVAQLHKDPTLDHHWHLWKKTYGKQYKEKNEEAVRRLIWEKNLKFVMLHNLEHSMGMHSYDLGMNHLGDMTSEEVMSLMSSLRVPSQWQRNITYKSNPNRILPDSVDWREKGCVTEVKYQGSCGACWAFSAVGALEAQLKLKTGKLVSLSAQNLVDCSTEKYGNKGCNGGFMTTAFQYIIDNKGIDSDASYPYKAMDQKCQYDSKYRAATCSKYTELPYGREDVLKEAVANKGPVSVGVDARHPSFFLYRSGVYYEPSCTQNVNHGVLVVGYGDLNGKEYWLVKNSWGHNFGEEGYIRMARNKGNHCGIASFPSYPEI
# methodSummary: In vitro inhibitory activity against human cathepsin S, using 2 uM of Z -Leu-Arg-AMC as substrate
reportedEndpoint: IC50 (nM)

molecule | reportedEndpoint | resultUnits | relationalOperator | recordedMeasurement
CC(C)CC(C(=O)NCC#N)c1cccc(-c2cncnc2)c1 (stereo not given) | IC50 | nM | > | 10000
CC(C)CC(C(=O)NCC#N)c1cccc(-c2ccc(N3CCN(CC(C)(C)O)CC3)cc2)c1 (stereo not given) | IC50 | nM | > | 10000
CC(C)CC(C(=O)NCC#N)c1cccc(-c2ccc(N3CCN(C(=O)OC(C)(C)C)CC3)cc2)c1 (stereo not given) | IC50 | nM | = | 1300
CC(C)CC(C(=O)NCC#N)c1cccc(-c2ccc(C34CCN(CC3)CC4)cc2)c1 (stereo not given) | IC50 | nM | = | 1990
CN1CCN(c2ccc(-c3cccc(CC(=O)NCC#N)c3)cc2)CC1 | IC50 | nM | > | 10000
